Origin of the recorded values: patent US20180258158A1

- measured-target: T1, human serum albumin (HSA), full length (human, UniProt P02768 25-609)
- T1 construct: mature; Immobilized on CM5 chip (SPR) or coated on plates (ELISA)
- T1 sequence (P02768 25-609): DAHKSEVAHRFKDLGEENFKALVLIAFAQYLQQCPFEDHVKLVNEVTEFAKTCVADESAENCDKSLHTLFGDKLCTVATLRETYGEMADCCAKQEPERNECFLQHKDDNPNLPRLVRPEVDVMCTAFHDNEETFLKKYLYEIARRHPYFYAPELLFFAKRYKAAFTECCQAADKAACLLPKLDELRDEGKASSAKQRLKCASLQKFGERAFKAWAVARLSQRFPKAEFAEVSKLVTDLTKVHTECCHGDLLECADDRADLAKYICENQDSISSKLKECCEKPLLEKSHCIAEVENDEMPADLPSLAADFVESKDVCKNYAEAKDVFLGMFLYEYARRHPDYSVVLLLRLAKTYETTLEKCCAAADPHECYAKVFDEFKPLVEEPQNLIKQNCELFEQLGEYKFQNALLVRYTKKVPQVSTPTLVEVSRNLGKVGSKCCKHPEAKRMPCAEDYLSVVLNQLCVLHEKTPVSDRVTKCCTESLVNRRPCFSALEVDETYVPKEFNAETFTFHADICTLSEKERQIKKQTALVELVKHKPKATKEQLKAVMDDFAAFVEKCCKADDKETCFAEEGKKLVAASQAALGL
- experiment-description: direct binding ELISA, coated HSA, anti-His-HRP
- Set-up: unit not given here
observed-property: HSA DB ELISA (OD450) Ymax obs
Please reply with the number alone, leaving off any unit.

binder: ADX_6727_D02 (R30N) (designed binder, Full His6-tagged entry) MGVSDVPRDLEVVAATPTSLLISWDAPAVTVRYYRITYGNEVQKYSDLGPLYIYQEFTVPGSKSTATISGLKPGVDYTITVYAVTGSGESPASSKPISINYRTEIDKPSQHHHHHH
HSA DB ELISA (OD450) Ymax obs: 99

binder: ADX_6727_G10 (Y35S/K85A) (designed binder, Full His6-tagged entry) MGVSDVPRDLEVVAATPTSLLISWDAPAVTVRYYRITYGREVQKSSDLGPLYIYQEFTVPGSKSTATISGLKPGVDYTITVYAVTGSGESPASSAPISINYRTEIDKPSQHHHHHH
HSA DB ELISA (OD450) Ymax obs: 96

Let's switch to this binder now.
Need HSA DB ELISA (OD450) Ymax obs, item ADX_6727_B01 (K85S) (designed binder, Full His6-tagged entry) MGVSDVPRDLEVVAATPTSLLISWDAPAVTVRYYRITYGREVQKYSDLGPLYIYQEFTVPGSKSTATISGLKPGVDYTITVYAVTGSGESPASSSPISINYRTEIDKPSQHHHHHH 97
